- measurement.target: A1-AdoR (Cavia porcellus, UniProt P47745)
- Sequence (P47745 whole entry): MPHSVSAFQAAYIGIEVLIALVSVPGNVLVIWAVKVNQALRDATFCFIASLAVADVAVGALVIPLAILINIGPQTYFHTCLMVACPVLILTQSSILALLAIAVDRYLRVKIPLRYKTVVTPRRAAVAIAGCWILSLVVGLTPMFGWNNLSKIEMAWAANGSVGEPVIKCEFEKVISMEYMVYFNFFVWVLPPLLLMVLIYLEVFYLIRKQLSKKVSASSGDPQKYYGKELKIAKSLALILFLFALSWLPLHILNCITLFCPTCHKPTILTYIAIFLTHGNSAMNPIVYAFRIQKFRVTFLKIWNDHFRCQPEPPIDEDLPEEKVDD
- assay.notes: 3H-CPX binding to guinea pig forebrain membranes
- reported.conditions: IC50 to reduce the binding of 3H-CPX, absence of GTP
- Experimental: Membranes containing A1-AdoRs for use in radioligand binding assays were prepared from guinea pig cerebral cortex or from rat isolated epididymal adipocytes. Freshly-isolated guinea pig brain cortical tissue was homogenized in ice-cold 50 mM Tris-HCl buffer (pH 7.4) using six up and down strokes of an ice-chilled Potter-Elvejhem tissue grinder and a motor-driven teflon™ pestle. […] The binding affinity of experimental agonists high and low affinity states of the A1-ADOR was determined. […]
measured.endpoint: IC50 (nM)
Give your result in nM as a bare value.

Quick check: IC50 of OC[C@H]1O[C@@H](n2cnc3c(NC4CCCC4)ncnc32)[C@H](O)[C@@H]1O [CPA, N^6-cyclopentyladenosine, reference compound] ?
2.5

The reported measurements were obtained from patent US6576620B2.
